Biological target: T1, human PSMA on PSMA-expressing cells (human, UniProt Q04609 1-750)
T1 construct: Cell line is named under assay or readout in each row; also called B16F10.9/hPSMA; B16F10.9/PSMA
T1 sequence (Q04609 whole entry): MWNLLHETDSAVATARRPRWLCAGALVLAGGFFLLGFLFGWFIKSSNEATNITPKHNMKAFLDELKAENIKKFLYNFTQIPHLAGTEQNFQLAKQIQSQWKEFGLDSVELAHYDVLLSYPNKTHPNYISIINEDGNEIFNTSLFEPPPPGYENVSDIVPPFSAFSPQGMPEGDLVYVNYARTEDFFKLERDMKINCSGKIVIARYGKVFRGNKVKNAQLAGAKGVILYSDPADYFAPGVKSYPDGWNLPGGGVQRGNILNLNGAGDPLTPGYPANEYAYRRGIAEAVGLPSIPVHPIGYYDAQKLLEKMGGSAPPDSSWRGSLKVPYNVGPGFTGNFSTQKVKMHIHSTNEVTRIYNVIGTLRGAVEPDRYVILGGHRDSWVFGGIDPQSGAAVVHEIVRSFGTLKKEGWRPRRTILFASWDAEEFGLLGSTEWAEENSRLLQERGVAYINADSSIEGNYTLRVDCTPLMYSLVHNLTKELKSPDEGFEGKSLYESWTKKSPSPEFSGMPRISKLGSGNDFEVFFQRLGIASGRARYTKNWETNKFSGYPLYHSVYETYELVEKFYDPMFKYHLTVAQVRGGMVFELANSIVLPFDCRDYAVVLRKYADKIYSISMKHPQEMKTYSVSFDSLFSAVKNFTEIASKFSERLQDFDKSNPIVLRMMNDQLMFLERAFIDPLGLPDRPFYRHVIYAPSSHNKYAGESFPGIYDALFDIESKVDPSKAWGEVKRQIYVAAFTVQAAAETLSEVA
Assay: FACS on B16F10.9/PSMA cells
Protocol: Briefly, 2×10⁵ cells/well of human CD3-expressing Jurkat, cynomolgus T, or human PSMA-specific expressing cells were incubated with a serial dilution of bispecific antibodies for 30 min at 4° C. After incubation, cells were washed and a goat F(ab′)₂ anti-human Fcγ PE labeled secondary (Jackson Immunolabs) was added to the cells for an additional 30 min. Next, cells were washed, re-suspended in cold PBS+1% BSA and analyzed via flow cytometry on a BD FACS Canto II. […]
RECORDED_ENDPOINT: EC50 (nM)

# BINDER, RECORDED_ENDPOINT, UNIT_ABBREVIATION, RECORDED_NUMBER
measured = [
    ("BSPSMA/CD3-1900 (bispecific antibody, IgG4, V domains shown, modified (chimeric) IgG4 Fc domain; also called PSMA-VH-11810 x CD3-VH-G19) VH 1: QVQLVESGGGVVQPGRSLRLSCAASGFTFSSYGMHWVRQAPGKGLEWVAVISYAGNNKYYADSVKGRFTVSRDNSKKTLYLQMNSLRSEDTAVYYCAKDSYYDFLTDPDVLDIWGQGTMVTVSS VH 2: EVQLVESGGGLVQPGRSLRLSCAASGFTFDDYSMHWVRQAPGKGLEWVSGISWNSGSIGYADSVKGRFTISRDNAKNSLYLQMNSLRAEDTALYYCAKDGSGYGKFYHYGMDVWGQGTTVTVSS VL: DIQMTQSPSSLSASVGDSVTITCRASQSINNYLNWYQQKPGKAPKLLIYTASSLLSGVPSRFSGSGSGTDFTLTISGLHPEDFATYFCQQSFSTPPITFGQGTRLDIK", "EC50", "nM", 1.35),
    ("BSPSMA/CD3-1800 (bispecific antibody, IgG4, V domains shown, modified (chimeric) IgG4 Fc domain; also called PSMA-VH-11810 x CD3-VH-G18) VH 1: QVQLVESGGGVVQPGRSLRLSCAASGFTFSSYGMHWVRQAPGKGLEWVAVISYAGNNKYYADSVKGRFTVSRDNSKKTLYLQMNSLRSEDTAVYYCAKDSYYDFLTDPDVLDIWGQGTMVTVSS VH 2: EVQLVESGGGLVQPGRSLRLSCAASGFTFDDYSMHWVRQAPGKGLEWVSGISWNSGSIGYADSVKGRFTISRDNAKNSLYLQMNSLRAEDTALYYCAKDGSGYGKFYYYGLDVWGQGTTVTVSS VL: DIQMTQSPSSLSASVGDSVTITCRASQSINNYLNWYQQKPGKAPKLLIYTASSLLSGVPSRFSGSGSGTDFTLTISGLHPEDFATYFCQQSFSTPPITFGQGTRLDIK", "EC50", "nM", 2.16),
    ("BSPSMA/CD3-005 (bispecific antibody, IgG4, V domains shown, modified (chimeric) IgG4 Fc domain; also called PSMA-VH-11810 x CD3-VH-G20) VH 1: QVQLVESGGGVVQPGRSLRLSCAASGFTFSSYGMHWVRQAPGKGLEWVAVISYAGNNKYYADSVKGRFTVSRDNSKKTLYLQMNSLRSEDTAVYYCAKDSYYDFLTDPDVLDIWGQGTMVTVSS VH 2: EVQLVESGGGLVQPGRSLRLSCAASGFTFDDYSMHWVRQAPGKGLEWVSGISWNSGSIGYADSVKGRFTISRDNAKNSLYLQMNSLRAEDTALYYCAKYGSGYGKFYYYGMDVWGQGTTVTVSS VL: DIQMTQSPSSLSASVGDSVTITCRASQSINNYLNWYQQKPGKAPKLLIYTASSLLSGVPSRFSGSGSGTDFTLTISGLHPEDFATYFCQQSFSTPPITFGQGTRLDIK", "EC50", "nM", 2.09),
    ("BSPSMA/CD3-003 (bispecific antibody, IgG4, V domains shown, modified (chimeric) IgG4 Fc domain; also called PSMA-VH-11810 x CD3-VH-G) VH 1: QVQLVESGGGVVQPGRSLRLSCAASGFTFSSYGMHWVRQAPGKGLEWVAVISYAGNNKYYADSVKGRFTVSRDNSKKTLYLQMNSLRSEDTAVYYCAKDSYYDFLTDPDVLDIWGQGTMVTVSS VH 2: EVQLVESGGGLVQPGRSLRLSCAASGFTFDDYSMHWVRQAPGKGLEWVSGISWNSGSKGYADSVKGRFTISRDNAKNSLYLQMNSLRAEDTALYYCAKYGSGYGKFYHYGLDVWGQGTTVTVSS VL: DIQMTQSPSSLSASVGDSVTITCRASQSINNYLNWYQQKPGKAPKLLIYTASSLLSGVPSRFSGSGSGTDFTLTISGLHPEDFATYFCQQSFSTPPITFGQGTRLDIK", "EC50", "nM", 2.26),
]
